# credit: PubChem BioAssay AID1963967

System: 855422-203-R-J1-PDC spheroids with HUVEC/MSC, viability
run_description: Anticancer human tumor 855422-203-R-J1-PDC patient-derived bladder carcinoma cell line growth inhibition [PI3K]
condition_context: second compound 0.316 µM; first compound 0.01 µM; hits give low values
Simple rule here: viability, T/C less than 50% is rule met, otherwise rule not met.

Completed entries (count: 4):
CCN1CCN(Cc2ccc(Nc3ncc(F)c(-c4cc(F)c5nc(C)n(C(C)C)c5c4)n3)nc2)CC1 + Cc1nc(NC(=O)N2CCCC2C(N)=O)sc1-c1ccnc(C(C)(C)C(F)(F)F)c1; rule not met
CC(=O)c1c(C)c2cnc(Nc3ccc(N4CCNCC4)cn3)nc2n(C2CCCC2)c1=O + CC(Nc1ccc2c(c1)OCCn1cc(N3C(=O)OCC3C(F)F)nc1-2)C(N)=O; rule met
CCN1CCN(Cc2ccc(Nc3ncc(F)c(-c4cc(F)c5nc(C)n(C(C)C)c5c4)n3)nc2)CC1 + COc1c(OCCCN2CCOCC2)ccc2c3n(c(=NC(=O)c4cnc(N)nc4)nc12)CCN3; rule met
Cn1ncnc1[C@H]1c2n[nH]c(=O)c3cc(F)cc(c23)N[C@@H]1c1ccc(F)cc1 + Cc1nc(NC(=O)N2CCCC2C(N)=O)sc1-c1ccnc(C(C)(C)C(F)(F)F)c1; rule not met

In the following, a different compound is considered.
Say whether its viability, T/C is strictly beneath 50%. Entry: CC(=O)c1c(C)c2cnc(Nc3ccc(N4CCNCC4)cn3)nc2n(C2CCCC2)c1=O + CC(Nc1ncnc2nc[nH]c12)c1cc2cccc(Cl)c2c(=O)n1-c1ccccc1
rule not met

----------
System: 855422-203-R-J1-PDC spheroids with HUVEC/MSC, viability
run_description: Anticancer human tumor 855422-203-R-J1-PDC cell line growth inhibition [PI3K];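 also: agents incubated with spheroids for one week before read-out; 100% = DMSO vehicle-treated control wells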
condition_context: second compound 0.316 µM; first compound 0.0316 µM; hits give low values
Reported viability, T/C by item:
Numbers only here, please. The scale is %.

Previously resolved entries follow.
CC(=O)c1c(C)c2cnc(Nc3ccc(N4CCNCC4)cn3)nc2n(C2CCCC2)c1=O + Cc1nc(NC(=O)N2CCCC2C(N)=O)sc1-c1ccnc(C(C)(C)C(F)(F)F)c1; 90.9
CC(Cn1ccc(-c2ccc(C#N)c(Cl)c2)n1)NC(=O)c1cc(C(C)O)[nH]n1 (stereo not drawn) + Cc1nc(NC(=O)N2CCCC2C(N)=O)sc1-c1ccnc(C(C)(C)C(F)(F)F)c1; 91.2

Note to self: viability, T/C recorded for Cn1ncc(Cl)c1-c1cc(C(=O)NC(CN)Cc2cccc(F)c2)sc1Cl (stereo not drawn) + CC(Nc1ncnc2nc[nH]c12)c1cc2cccc(Cl)c2c(=O)n1-c1ccccc1 was 92.2

----------
Let's look at some compounds and their measured viability, T/C.
System: 855422-203-R-J1-PDC spheroids with HUVEC/MSC, viability
run_description: Anticancer human tumor 855422-203-R-J1-PDC cell line growth inhibition [PI3K];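 also: agents incubated with spheroids for one week before read-out; 100% = DMSO vehicle-treated control wells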
condition_context: second compound 1 µM; first compound 10 µM; hits give low values
API: value field is a number in %; no unit string.

The following compounds have reported results that may help.
CC1(C)CCC(Nc2ncc(C(F)(F)F)c(-c3c[nH]c4c(P(C)(C)=O)c(C#N)ccc34)n2)CN1 (stereo not given) + CC(Nc1ccc2c(c1)OCCn1cc(N3C(=O)OCC3C(F)F)nc1-2)C(N)=O; 0.83
CC(C)NCC(C(=O)N1CCN(c2ncnc3c2C(C)CC3O)CC1)c1ccc(Cl)cc1 (stereo not given) + COc1c(OCCCN2CCOCC2)ccc2c3n(c(=NC(=O)c4cnc(N)nc4)nc12)CCN3; 1.58
CC1(C)CCC(CN2CCN(c3ccc(C(=O)NS(=O)(=O)c4ccc(NCC5CCOCC5)c([N+](=O)[O-])c4)c(Oc4cnc5[nH]ccc5c4)c3)CC2)=C(c2ccc(Cl)cc2)C1 + CC(Nc1ccc2c(c1)OCCn1cc(N3C(=O)OCC3C(F)F)nc1-2)C(N)=O; 1.55
Cn1ncc(Cl)c1-c1cc(C(=O)NC(CN)Cc2cccc(F)c2)sc1Cl (stereo not given) + CC(Nc1ccc2c(c1)OCCn1cc(N3C(=O)OCC3C(F)F)nc1-2)C(N)=O; 1.17
CCCS(=O)(=O)Nc1ccc(F)c(C(=O)c2c[nH]c3ncc(-c4ccc(Cl)cc4)cc23)c1F + CC(Nc1ccc2c(c1)OCCn1cc(N3C(=O)OCC3C(F)F)nc1-2)C(N)=O; 0.31

Form: compound = CC(C)NCC(C(=O)N1CCN(c2ncnc3c2C(C)CC3O)CC1)c1ccc(Cl)cc1 (stereo not given) + CC(Nc1ncnc2nc[nH]c12)c1cc2cccc(Cl)c2c(=O)n1-c1ccccc1 ; viability, T/C = 19.5

Reported viability, T/C ( CC(Cn1ccc(-c2ccc(C#N)c(Cl)c2)n1)NC(=O)c1cc(C(C)O)[nH]n1 (stereo not given) + CC(Nc1ncnc2nc[nH]c12)c1cc2cccc(Cl)c2c(=O)n1-c1ccccc1 ) = 95.7

Sample CC1(C)CCC(Nc2ncc(C(F)(F)F)c(-c3c[nH]c4c(P(C)(C)=O)c(C#N)ccc34)n2)CN1 (stereo not given) + CC(Nc1ncnc2nc[nH]c12)c1cc2cccc(Cl)c2c(=O)n1-c1ccccc1 ; viability, T/C observed: 5.15

Lab note: CC1(C)CCC(CN2CCN(c3ccc(C(=O)NS(=O)(=O)c4ccc(NCC5CCOCC5)c([N+](=O)[O-])c4)c(Oc4cnc5[nH]ccc5c4)c3)CC2)=C(c2ccc(Cl)cc2)C1 + Cc1nc(NC(=O)N2CCCC2C(N)=O)sc1-c1ccnc(C(C)(C)C(F)(F)F)c1 gave viability, T/C of 0.91

Entry Cn1nccc1Nc1nccc(-c2ccn(C(CO)c3ccc(Cl)c(F)c3)c(=O)c2)n1 (stereo not given) + CC(Nc1ncnc2nc[nH]c12)c1cc2cccc(Cl)c2c(=O)n1-c1ccccc1 — recorded viability, T/C = 45.7

----------
System: 855422-203-R-J1-PDC spheroids with HUVEC/MSC, viability
run_description: Anticancer human tumor 855422-203-R-J1-PDC cell line growth inhibition [PI3K];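 also: agents incubated with spheroids for one week before read-out; 100% = DMSO vehicle-treated control wells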
condition_context: second compound 0.0316 µM; first compound 0.1 µM; hits give low values
assay_endpoint: viability, T/C (%)
Express it in %; write the number only.

Consider the worked cases shown below.
CC1(C)CCC(Nc2ncc(C(F)(F)F)c(-c3c[nH]c4c(P(C)(C)=O)c(C#N)ccc34)n2)CN1 (configuration not stated) + CC(Nc1ccc2c(c1)OCCn1cc(N3C(=O)OCC3C(F)F)nc1-2)C(N)=O; 22.9
CC1(C)CCC(CN2CCN(c3ccc(C(=O)NS(=O)(=O)c4ccc(NCC5CCOCC5)c([N+](=O)[O-])c4)c(Oc4cnc5[nH]ccc5c4)c3)CC2)=C(c2ccc(Cl)cc2)C1 + Cc1nc(NC(=O)N2CCCC2C(N)=O)sc1-c1ccnc(C(C)(C)C(F)(F)F)c1; 89.9
CC(Cn1ccc(-c2ccc(C#N)c(Cl)c2)n1)NC(=O)c1cc(C(C)O)[nH]n1 (configuration not stated) + CC(Nc1ncnc2nc[nH]c12)c1cc2cccc(Cl)c2c(=O)n1-c1ccccc1; 93.3

Query CCCS(=O)(=O)Nc1ccc(F)c(C(=O)c2c[nH]c3ncc(-c4ccc(Cl)cc4)cc23)c1F + Cc1nc(NC(=O)N2CCCC2C(N)=O)sc1-c1ccnc(C(C)(C)C(F)(F)F)c1 yields viability, T/C of 89.5

The compound listed as CCN1CCN(Cc2ccc(Nc3ncc(F)c(-c4cc(F)c5nc(C)n(C(C)C)c5c4)n3)nc2)CC1 + CC(Nc1ccc2c(c1)OCCn1cc(N3C(=O)OCC3C(F)F)nc1-2)C(N)=O shows viability, T/C equal to 61.7

// recorded viability, T/C for CC(C)NCC(C(=O)N1CCN(c2ncnc3c2C(C)CC3O)CC1)c1ccc(Cl)cc1 (configuration not stated) + CC(Nc1ncnc2nc[nH]c12)c1cc2cccc(Cl)c2c(=O)n1-c1ccccc1 : 83.2

Short answer for C=CC(=O)N1CCN(c2nc(=O)n(-c3c(C)ccnc3C(C)C)c3nc(-c4c(O)cccc4F)c(F)cc23)C(C)C1 (configuration not stated) + CC(Nc1ccc2c(c1)OCCn1cc(N3C(=O)OCC3C(F)F)nc1-2)C(N)=O : viability, T/C was 81.1

----------
Collected viability, T/C values appear next to each entry.
System: 855422-203-R-J1-PDC spheroids with HUVEC/MSC, viability
run_description: Anticancer human tumor 855422-203-R-J1-PDC cell line growth inhibition [PI3K];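 also: agents incubated with spheroids for one week before read-out; 100% = DMSO vehicle-treated control wells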
condition_context: second compound 1 µM; first compound 0.001 µM; hits give low values
Write the answer as a number in %, unit excluded.

Worked cases, answers included:
Cn1ncnc1[C@H]1c2n[nH]c(=O)c3cc(F)cc(c23)N[C@@H]1c1ccc(F)cc1 + CC(Nc1ncnc2nc[nH]c12)c1cc2cccc(Cl)c2c(=O)n1-c1ccccc1; 107
CC(=O)c1c(C)c2cnc(Nc3ccc(N4CCNCC4)cn3)nc2n(C2CCCC2)c1=O + Cc1nc(NC(=O)N2CCCC2C(N)=O)sc1-c1ccnc(C(C)(C)C(F)(F)F)c1; 78.2

Value of viability, T/C reported for the molecule CC(C)n1nc(-c2ccc3oc(N)nc3c2)c2c(N)ncnc21 + CC(Nc1ccc2c(c1)OCCn1cc(N3C(=O)OCC3C(F)F)nc1-2)C(N)=O is 38.4
